System: Enterococcus faecium and faecalis (RESISTANT)
Conditions: geometric mean of 4-6 isolates
Quantity: Minimal Inhibitory Concentration (MIC) Resistant
Please reply with the value in numeric form only.

CC1OC(OC2c3ccc(c(Cl)c3)Oc3cc4cc(c3OC3OC(CO)C(O)C(O)C3OC3CC(C)(NCc5ccc(-c6ccccc6)cc5)C(O)C(C)O3)Oc3ccc(cc3Cl)C(O)C(N)C(=O)NC(CC(N)=O)C(=O)NC4C(=O)NC3C(=O)NC2C(=O)NC(C(=O)O)c2cc(O)cc(O)c2-c2cc3ccc2O)CC(C)(N)C1O (centres unmarked)    16

Query: Assign Minimal Inhibitory Concentration (MIC) Resistant to the following record: CCCCc1ccc(CNC2(C)CC(OC3C(Oc4c5cc6cc4Oc4ccc(cc4Cl)C(OC4CC(C)(N)C(O)C(C)O4)C4NC(=O)C(NC(=O)C6NC(=O)C(CC(N)=O)NC(=O)C(N)C(O)c6ccc(c(Cl)c6)O5)c5ccc(O)c(c5)-c5c(O)cc(O)cc5C(C(=O)O)NC4=O)OC(CO)C(O)C3O)OC(C)C2O)cc1 (centres unmarked)
Result: 108

Query: Assign Minimal Inhibitory Concentration (MIC) Resistant to the following record: CC1OC(OC2c3ccc(c(Cl)c3)Oc3cc4cc(c3OC3OC(CO)C(O)C(O)C3OC3CC(C)(NCc5ccc(-c6ccc(Cl)cc6)cc5)C(O)C(C)O3)Oc3ccc(cc3Cl)C(O)C(N)C(=O)NC(CC(N)=O)C(=O)NC4C(=O)NC3C(=O)NC2C(=O)NC(C(=O)O)c2cc(O)cc(O)c2-c2cc3ccc2O)CC(C)(N)C1O (centres unmarked)
Result: 6.7

Query: Assign Minimal Inhibitory Concentration (MIC) Resistant to the following record: CC1OC(OC2c3ccc(c(Cl)c3)Oc3cc4cc(c3OC3OC(CO)C(O)C(O)C3OC3CC(C)(NCCCCCCCCc5ccccc5)C(O)C(C)O3)Oc3ccc(cc3Cl)C(O)C(N)C(=O)NC(CC(N)=O)C(=O)NC4C(=O)NC3C(=O)NC2C(=O)NC(C(=O)O)c2cc(O)cc(O)c2-c2cc3ccc2O)CC(C)(N)C1O (centres unmarked)
Result: 5.7

Query: Assign Minimal Inhibitory Concentration (MIC) Resistant to the following record: CC1OC(OC2c3ccc(c(Cl)c3)Oc3cc4cc(c3OC3OC(CO)C(O)C(O)C3OC3CC(C)(NCc5ccc(Oc6ccccc6)cc5)C(O)C(C)O3)Oc3ccc(cc3Cl)C(O)C(N)C(=O)NC(CC(N)=O)C(=O)NC4C(=O)NC3C(=O)NC2C(=O)NC(C(=O)O)c2cc(O)cc(O)c2-c2cc3ccc2O)CC(C)(N)C1O (centres unmarked)
Result: 45

###

System: Staphylococcus haemolyticus 415
Experiment: MIC, standard broth micro-dilution assay, SH 415
Assay type: cell-based
Below, each entry is listed alongside its reported Minimal Inhibitory Concentration (MIC) SH 415.
Please reply with the value in numeric form only.

CC1OC(OC2c3ccc(c(Cl)c3)Oc3cc4cc(c3OC3OC(CO)C(O)C(O)C3OC3CC(C)(NCCCCCCCCc5ccccc5)C(O)C(C)O3)Oc3ccc(cc3Cl)C(O)C(N)C(=O)NC(CC(N)=O)C(=O)NC4C(=O)NC3C(=O)NC2C(=O)NC(C(=O)O)c2cc(O)cc(O)c2-c2cc3ccc2O)CC(C)(N)C1O (stereo not drawn)    2

Moving on to the next molecule.
Query: Assign Minimal Inhibitory Concentration (MIC) SH 415 to the following record: CC1OC(OC2c3ccc(c(Cl)c3)Oc3cc4cc(c3OC3OC(CO)C(O)C(O)C3OC3CC(C)(NCc5ccc(-c6ccccc6)cc5)C(O)C(C)O3)Oc3ccc(cc3Cl)C(O)C(N)C(=O)NC(CC(N)=O)C(=O)NC4C(=O)NC3C(=O)NC2C(=O)NC(C(=O)O)c2cc(O)cc(O)c2-c2cc3ccc2O)CC(C)(N)C1O (stereo not drawn)
Result: 1
